Measurement Description: acute toxicity investigation (LD50)
Cond: mouse, in vivo, ip; mice
Experimental: The compounds prepared were subjected to acute toxicity investigations. For this purpose, the compounds under test were dissolved in an aqueous sodium carbonate solution and administered intraperitoneally (i.p.) or intravenously (i.v.) to the animals (40 days old CFLP female mice). Some characteristic LD50 values of the compounds of the invention are as follows: […]
Measured Attribute: LD50 (mg/kg)
Please respond with the number in mg/kg and leave the unit unwritten.

Query string: Sample "CC(=O)N1[C@@H](C(=O)O)C(C)(C)S[C@H]1c1ccccc1" — what was its LD50?
Result string: 1500

Query string: Sample CC1(C)SC(CO)N[C@H]1C(=O)O (stereo partly shown) — what was its LD50?
Result string: 5000

Query string: Sample "CC(=O)N1[C@@H](c2ccc(Cl)cc2)SC(C)(C)[C@@H]1C(=O)O" — what was its LD50?
Result string: 550

Query string: Sample "CC(=O)N1[C@@H](C(=O)O)C(C)(C)S[C@H]1c1ccc([N+](=O)[O-])o1" — what was its LD50?
Result string: 2500

* * *

Measurement Description: acute toxicity investigation (LD50)
Cond: mouse, in vivo, iv; mice
Measured Attribute: LD50 (mg/kg)
Please respond with the number in mg/kg and leave the unit unwritten.

Query string: Sample CC1(C)SC(c2ccc([N+](=O)[O-])o2)N[C@H]1C(=O)O (stereo partly shown) [Example 1] — what was its LD50?
Result string: 2190

* * *

Tested on: CFY male rats
Measurement Description: liver protecting effect: carbon tetrachloride intoxication followed by treatment with the compounds under test
Type: in vivo, rat (CFY male)
Cond: CCl4 1.5 g/kg orally, compound 100 mg/kg i.p. after 6 hours; control 40 ± 8, CCl4 alone 86 ± 17
Provide the recorded TG (triglyceride content of the liver) for the entries that follow.
Please respond with the number in µg/mg protein and leave the unit unwritten.

Query string: Sample CSc1ccc(C2N[C@@H](C(=O)O)C(C)(C)S2)cc1 (some centres unmarked) — what was its TG (triglyceride content of the liver)?
Result string: 70

Query string: Sample CC1(C)SC(c2ccc([N+](=O)[O-])o2)N[C@H]1C(=O)O (some centres unmarked) — what was its TG (triglyceride content of the liver)?
Result string: 51

Query string: Sample CC1(C)SC(c2cc3ccccc3o2)N[C@H]1C(=O)O (some centres unmarked) — what was its TG (triglyceride content of the liver)?
Result string: 61

Query string: Sample CC1(C)SC(c2ccncc2)N[C@H]1C(=O)O (some centres unmarked) — what was its TG (triglyceride content of the liver)?
Result string: 88

Query string: Sample Oc1cc(O)c2c(c1)O[C@H](c1ccc(O)c(O)c1)[C@@H](O)C2 [catergen, reference compound] — what was its TG (triglyceride content of the liver)?
Result string: 77

Query string: Sample CC1(C)SC(c2ccco2)N[C@H]1C(=O)O (some centres unmarked) — what was its TG (triglyceride content of the liver)?
Result string: 84

Query string: Sample Cn1cccc1C1N[C@@H](C(=O)O)C(C)(C)S1 (some centres unmarked) — what was its TG (triglyceride content of the liver)?
Result string: 114

Query string: Sample CC1(C)SC(c2ccc(F)cc2)N[C@H]1C(=O)[O-].[K+] (some centres unmarked) — what was its TG (triglyceride content of the liver)?
Result string: 81

Query string: Sample CC1(C)SC(c2cccc([N+](=O)[O-])c2)N[C@H]1C(=O)O (some centres unmarked) — what was its TG (triglyceride content of the liver)?
Result string: 83

Query string: Sample CC1(C)SC(c2cccnc2)N[C@H]1C(=O)O (some centres unmarked) — what was its TG (triglyceride content of the liver)?
Result string: 61

Query string: Sample CC1(C)SC(c2ccc3c(c2)CCC3)N[C@H]1C(=O)O (some centres unmarked) — what was its TG (triglyceride content of the liver)?
Result string: 76

Hello, the source for this data is patent US4775675A, in case you need it.
